Each entry below lists one item and its recorded pIC50 value.
system: human pancreatic cancer strain KP4; type: cell-based
Schema: pIC50 number; meaning minus log10 of the concentration expressed in molar units.

Recorded pIC50, per entry:
{"smiles.structure": "C#CC[C@H]1C(=O)N[C@@H]([C@@H](C)CC)C(=O)N(C)CC(=O)N(C)[C@H]2C/C=C\\CCN(C2=O)[C@@H](Cc2ccc(C)cc2)C(=O)N(C)CC(=O)N[C@@H](CCc2cc(F)c(C(F)(F)F)c(F)c2)C(=O)N2C[C@H](OCC)C[C@H]2C(=O)N(C)C2(CCC2)C(=O)N(C)[C@@H](C2CCCC2)C(=O)N(C)[C@H](C(=O)N(C)C)CC(=O)N1C", "tested.on": "human pancreatic cancer strain KP4", "outcome.measure": "pIC50", "test.value": 8.38}
{"smiles.structure": "CCC[C@H]1C(=O)N[C@@H]([C@@H](C)CC)C(=O)N(C)CC(=O)N(C)[C@H]2C/C=C\\CCN(C2=O)[C@@H](Cc2ccc(C(F)(F)F)cc2)C(=O)N(C)CC(=O)N[C@@H](CCc2ccc(C(F)(F)F)c(Cl)c2)C(=O)N2CC3(CC3)C[C@H]2C(=O)NC2(CCC2)C(=O)N(C)[C@@H](C(CC)CC)C(=O)N(C)[C@H](C(=O)N(C)C)CC(=O)N1C", "tested.on": "human pancreatic cancer strain KP4", "outcome.measure": "pIC50", "test.value": 7.53}

*Q* # query: pIC50 of entry "CCO[C@@H]1C[C@H]2C(=O)OC3(CCC3)C(=O)N(C)[C@@H](C3CCCC3)C(=O)N(C)[C@H](C(=O)N(C)C)CC(=O)N(C)[C@@H]([C@@H](C)OC)C(=O)N[C@@H]([C@@H](C)CC)C(=O)N(C)CC(=O)N(C)[C@H]3C/C=C\CCN(C3=O)[C@@H](Cc3ccc(C)cc3)C(=O)N(C)CC(=O)N[C@@H](CCc3ccc(C(F)(F)F)c(OC)c3)C(=O)N2C1"
*A* 8.41

###

Each entry below lists one item and its recorded pKd value.
target: GDP-bound KRAS wild-type protein (Homo sapiens); experiment: Binding to KRAS by surface plasmon resonance (SPR), dissociation constant KD; settings: Single Cycle Kinetics, 1:1 binding model
Schema: pKd number; meaning minus log10 of the concentration expressed in molar units.

{"smiles.structure": "CCC[C@H]1C(=O)N[C@@H](C2CCC2)C(=O)N(C)CC(=O)N(C)[C@H]2C/C=C\\CCN(C2=O)[C@@H](Cc2ccc(C)cc2)C(=O)N(C)CC(=O)N[C@@H](CCc2ccc(C(F)(F)F)c(F)c2)C(=O)N2C[C@H](OCC)C[C@H]2C(=O)NC2(CC(C)(C)C2)C(=O)N(C)[C@@H](C2CCC2)C(=O)N(C)[C@H](C(=O)N(C)C)CC(=O)N1C", "tested.on": "GDP-bound KRAS wild-type protein (Homo sapiens)", "outcome.measure": "pKd", "test.value": 8.74}

Proceed to the following item.
*Q* Notebook: pull reported pKd for GDP-bound KRAS wild-type protein (Homo sapiens), entry "CCO[C@@H]1C[C@H]2C(=O)NC3(CCC3)C(=O)N(C)[C@@H](C(CC)CC)C(=O)N(C)[C@H](C(=O)N3CCOCC3)CC(=O)N(C)[C@@H](CC)C(=O)N[C@@H]([C@@H](C)CC)C(=O)N(C)CC(=O)N(C)[C@H]3C/C=C\CCN(C3=O)[C@@H](Cc3ccc(C(F)(F)F)cc3)C(=O)N(C)CC(=O)N[C@@H](CCc3cc(F)c(C(F)(F)F)c(F)c3)C(=O)N2C1"
*A* 9.19

###

target: GDP-bound KRAS wild-type protein (Homo sapiens, UniProt P01116); assay: Binding to KRAS by surface plasmon resonance (SPR), dissociation constant KD; conditions: Single Cycle Kinetics, 1:1 binding model
Sequence (P01116 1-188 isoform P01116-2): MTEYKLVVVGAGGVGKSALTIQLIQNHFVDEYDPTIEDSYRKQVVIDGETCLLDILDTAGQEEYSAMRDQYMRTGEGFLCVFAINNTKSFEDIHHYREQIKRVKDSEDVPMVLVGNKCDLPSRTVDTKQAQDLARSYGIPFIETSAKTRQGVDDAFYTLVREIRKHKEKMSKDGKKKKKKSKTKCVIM
outcome.measure: pKd
Schema: pKd number; meaning minus log10 of the concentration expressed in molar units.

{"smiles.structure": "CCO[C@@H]1C[C@H]2C(=O)NC3(CCC3)C(=O)N(C)[C@@H](C3CCCC3)C(=O)N(C)[C@H](C(=O)N3CCOCC3)CC(=O)N(C)[C@@H](CC)C(=O)N[C@@H]([C@@H](C)CC)C(=O)N(C)CC(=O)N(C)[C@H]3C[C@@H](C)[C@@H](C)CN(C3=O)[C@@H](Cc3ccc(C(F)(F)F)cc3)C(=O)N(C)CC(=O)N[C@@H](CCc3cc(F)c(C(F)(F)F)c(F)c3)C(=O)N2C1", "tested.on": "GDP-bound KRAS wild-type protein (Homo sapiens, UniProt P01116)", "pKd": 10.25}
{"smiles.structure": "CCCC[C@H]1C(=O)N[C@@H]([C@@H](C)CC)C(=O)N(C)CC(=O)N(C)[C@H]2C/C=C\\CCN(C2=O)[C@@H](Cc2ccc(C(F)(F)F)cc2)C(=O)N(C)CC(=O)N[C@@H](CCc2cc(F)c(C(F)(F)F)c(F)c2)C(=O)N2C[C@H](F)C[C@H]2C(=O)NC2(CC(C)(C)C2)C(=O)N(C)[C@@H](C2CCCC2)C(=O)N(C)[C@H](C(=O)N(C)C)CC(=O)N1C", "tested.on": "GDP-bound KRAS wild-type protein (Homo sapiens, UniProt P01116)", "pKd": 10.57}

Proceed to the following item.
*Q* # query: pKd of entry "CCCOC[C@H]1C(=O)N[C@@H]([C@@H](C)CC)C(=O)N(C)CC(=O)N(C)[C@H]2C/C=C\CCN(C2=O)[C@@H](Cc2ccc(C(F)(F)F)cc2)C(=O)N(C)CC(=O)N[C@@H](CCc2cc(F)c(C(F)(F)F)c(F)c2)C(=O)N2C[C@H](OCC)C[C@H]2C(=O)NC2(CCCC2)C(=O)N(C)[C@@H](C2CCCC2)C(=O)N(C)[C@H](C(=O)N2CCCC2)CC(=O)N1C"
*A* 9.72

###

system: human lung cancer strain NCI-H441; type: cell-based
Each entry below lists one item and its recorded pIC50 value.
Schema: pIC50 number; meaning minus log10 of the concentration expressed in molar units.

Recorded pIC50, per entry:
{"compound": "CCO[C@@H]1C[C@H]2C(=O)NC3(CCC3)C(=O)N(C)[C@@H](C3CCCC3)C(=O)N(C)[C@H](C(=O)N(C)C)CC(=O)N(C)[C@@H](Cc3ccc(F)cc3)C(=O)N[C@@H]([C@@H](C)CC)C(=O)N(C)CC(=O)N(C)[C@H]3CCCCCN(C3=O)[C@@H](Cc3ccc(C(F)(F)F)cc3)C(=O)N(C)CC(=O)N[C@@H](CCc3cc(F)c(C(F)(F)F)c(F)c3)C(=O)N2C1", "pIC50": 7.37}
{"compound": "CC[C@H](C)[C@@H]1NC(=O)[C@H](CC2CC2)N(C)C(=O)C[C@@H](C(=O)N(C)CC)N(C)C(=O)[C@H](C2CCCC2)N(C)C(=O)C2(CCC2)NC(=O)[C@@H]2C[C@@H](C)CN2C(=O)[C@H](CCc2ccc(C(F)(F)F)c(OC)c2)NC(=O)CN(C)C(=O)[C@H](Cc2ccc(C)cc2)N2CC/C=C\\C[C@@H](C2=O)N(C)C(=O)CN(C)C1=O", "pIC50": 7.61}

*Q* # query: pIC50 of entry "CCC[C@H]1C(=O)N[C@@H]([C@@H](C)CC)C(=O)N2CCC[C@H]2C(=O)N(C)[C@H]2C/C=C\CCN(C2=O)[C@@H](Cc2ccc(C)cc2)C(=O)N(C)CC(=O)N[C@@H](CCc2ccc(C(F)(F)F)c(OC)c2)C(=O)N2C[C@H](OCC)C[C@H]2C(=O)N(C)C2(CCC2)C(=O)N(C)[C@@H](C2CCCC2)C(=O)N(C)[C@H](C(=O)N2CCCC2)CC(=O)N1C"
*A* 8.17

*Q* Also "CCO[C@@H]1C[C@H]2C(=O)NC3(CC(C)(C)C3)C(=O)N(C)[C@@H](C3CCCC3)C(=O)N(C)[C@H](C(=O)N(C)C)CC(=O)N(C)[C@@H](CC)C(=O)N[C@@H]([C@@H](C)CC)C(=O)N(C)CC(=O)N(C)[C@H]3C/C=C\CCN(C3=O)[C@@H](Cc3ccc(C(F)(F)F)cc3)C(=O)N(C)CC(=O)N[C@@H](CCc3ccc(C(F)(F)F)c(Cl)c3)C(=O)N2C1" , if possible.
*A* 8.72

*Q* Also "CC[C@H](C)[C@@H]1NC(=O)[C@H](CC)N(C)C(=O)C[C@@H](C(=O)N(C)C)N(CC)C(=O)[C@H](C2CCCC2)N(C)C(=O)C2(CCC2)NC(=O)[C@@H]2C[C@@H](N3CCC(F)(F)CC3)CN2C(=O)[C@H](CCc2cc(F)c(C(F)(F)F)c(F)c2)NC(=O)CN(C)C(=O)[C@H](Cc2ccc(C(F)(F)F)cc2)N2CCCC[C@@H](C2=O)N(C)C(=O)CN(C)C1=O" , if possible.
*A* 6.66
